pIC50: −log10 of the molar value.
Collected set of pIC50 measured with HPK1 (Homo sapiens (Human)) across studies.

compound: CN1CC(CN(C)C(=O)c2ccc(-c3c[nH]c4ncc(-c5ccc6c(c5)OCC5CN(C)CCN65)cc34)cc2)C1 (stereo not shown)
pIC50: ≥ 8.00
//
compound: COc1cc2c(cc1Nc1ncc3ccc(Nc4cccc(CO)c4)cc3n1)CN(C)CC2
pIC50: 7.53
//
compound: CCOc1cccc(F)c1-c1cc2c(cn1)NC(=O)/C2=C(/C)Nc1ccc(N2CCOCC2)nc1
pIC50: 7.00 to 7.30
//
compound: C/C(Nc1cnn(C)c1)=C1/C(=O)Nc2cnc(-c3cncc4c3OCC(=O)N4)cc21
pIC50: > 7.30
//
compound: C/C(Nc1cnn(C[C@@H](C)O)c1)=C1/C(=O)Nc2cnc(-c3cnccc3C)cc21
pIC50: > 7.30
//
compound: O=C1NCc2c(-c3ccccc3)ncc(Nc3ccc(N4CCNCC4)cn3)c21
pIC50: 5.30 to 6.00
//
compound: CC(O)(c1ccc(F)c(-c2cc(Nc3ccc(N4CCC(O)CC4)cn3)c3c(=O)[nH]ccc3n2)c1)C(F)(F)F (single isomer, unassigned)
pIC50: ≥ 7.00
//
compound: Cc1nc2ccccn2c1-c1ncc(Nc2ccc(N3CCC(O)CC3)cn2)c2c1CNC2=O
pIC50: < 6.00
//
compound: COc1cc2c(cc1Nc1ncc(C(N)=O)c(NCc3ccccc3OC(F)(F)F)n1)CN(C)CC2
pIC50: 9.24
//
compound: COCc1nc2c(N3CC[C@H](N)C3)c(NC(=O)c3ccnn(-c4c(F)cccc4F)c3=O)ccc2n1C
pIC50: > 7.00
//
compound: COc1cccc(F)c1-c1nccc(C(=O)Nc2ccc3c(nc(-c4ccncc4F)n3C)c2N2CC[C@H](N)C2)c1F
pIC50: > 7.00
//
compound: CN(C[C@@H]1CN(c2ccc(Nc3ccc(-c4cnc5cc(F)ccn45)c4c3C(=O)NC4)nc2)CCO1)C1CC1
pIC50: > 7.00
//
compound: Cc1c(-c2cc3nc(Nc4cnn(CC5CC5)c4)ncc3c(N)c2F)cnc2c1NCCO2
pIC50: 9.85
//
compound: COc1cc2c(cc1Nc1ncc3ccc(Nc4cc(CO)ccn4)cc3n1)CN(C)CC2
pIC50: 9.05
//
compound: CC(C)(C)NCc1nc(Nc2ccc(-c3cnc4cc(F)ccn34)c3c2C(=O)NC3)ccc1C1CCOC1 (stereo not shown)
pIC50: > 7.00
//
compound: COc1nc2c(cc1Nc1ncc3cccc(-c4cccc(Cl)n4)c3n1)CN(C)CC2
pIC50: > 10.00
